Measured target: T1, human IL2Rα Fc fusion protein (human, UniProt P01589 22-213, limits assumed)
T1 construct: also called CD25; not shown: Fc part
T1 sequence (looked up): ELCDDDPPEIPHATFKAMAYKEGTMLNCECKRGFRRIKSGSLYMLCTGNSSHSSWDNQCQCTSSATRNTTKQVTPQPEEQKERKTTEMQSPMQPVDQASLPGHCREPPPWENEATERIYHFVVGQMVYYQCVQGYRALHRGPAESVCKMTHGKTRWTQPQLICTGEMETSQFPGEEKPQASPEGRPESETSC
Measurement protocol: ELISA, single concentration, anti-flag detection, E. coli-produced clone
Listed here are binders together with their documented OD450 nm.
Report the value in OD450 with no unit label.

EP568 (clone 2021EP16-H06), E. coli-produced (ligand) APASSSTKKTQLQLEHLLLDLQMILNGINNYKNPKLTRMLTFKFYMPKKATELKHLQCLEEELKPLEEVLNLAQSKNFHLLAKRTVSNMYVRVEELKGSETTFMCEYADETATIVEFLNRWITFSQSIISTLT    1.25

Next:
# lookup: OD450 nm of EP575 (clone 2021EP16-D09), E. coli-produced (ligand) APASSSTKKTQLQLEHLLLDLQMILNGINNYKNPKLTRMLTFKFYMPKKATELKHLQCLEEELKPLEEVLNLAQSKNFHLRNKGILGDISNIVLALKGSETTFMCEYADETATIVEFLNRWITFSQSIISTLT
1.25
